B1: Azoarcus group I ribozyme (parent)
chain: GUGCCUUGCGCCGGGAAACCACGCAAGGGAUGGUGUCAAAUUCGGCGAAACCUAAGCGCCCGCCCGGGCGUAUGGCAACGCCGAGCCAAGCUUCGGCGCCUGCGCCGAUGAAGGUGUAGAGACUAGACGGCACCCACCUAAGGCAAACGCUAUGGUGAAGGCAUAGUCCAGGGAGUGGCGAAAGUCACACAAACCGG

# Variants of: B1
# test-protocol: reverse-splicing fitness (ratio to wild type); higher = more active; in vitro selection; Mg2+ level not given
Each item that follows carries a reported reverse-splicing fitness.

variant-notation: C82G A120G A145U C150A
reverse-splicing fitness: 0.00866
//
variant-notation: C82A A111G A145U C169U U176C
reverse-splicing fitness: 0.0133
//
variant-notation: C82U A111G C150A C169G U176C
reverse-splicing fitness: 0.0199
//
variant-notation: C82A A111C A120U C169A U176C
reverse-splicing fitness: 0.0037
//
variant-notation: C82G A120C C150A C169U U176G
reverse-splicing fitness: 0.00663
//
variant-notation: C82A A111U A120C A145U C150G C169U U176G
reverse-splicing fitness: 0.00741
//
variant-notation: A111C A145G C150A
reverse-splicing fitness: 0.31
//
variant-notation: A111U A120C A145G C150U C169U U176G
reverse-splicing fitness: 0.0053
//
variant-notation: C82G A111U A120U A145C C150G C169U U176G
reverse-splicing fitness: 0.00252
//
variant-notation: C82U A111C C150U U176G
reverse-splicing fitness: 0.0125
//
variant-notation: A145G C150A C169G
reverse-splicing fitness: 0.0594
//
variant-notation: C82G A111U A120U C150U C169U U176C
reverse-splicing fitness: 0.00402
//
variant-notation: C82U A111U A120G A145G C150A C169A
reverse-splicing fitness: 0.0105
//
variant-notation: C82A A111G A120C A145C C150U U176G
reverse-splicing fitness: 0.00644
//
variant-notation: C82G A111U A120G A145U C150U C169G U176G
reverse-splicing fitness: 0.00511
//
variant-notation: A120U A145G C169A
reverse-splicing fitness: 0.0154
//
variant-notation: C82U A111C A120C A145C C150U C169G U176G
reverse-splicing fitness: 0.00566
//
variant-notation: C82A A111C C150U C169G U176A
reverse-splicing fitness: 0.013
//
variant-notation: A120U A145U C150G U176A
reverse-splicing fitness: 0.122
//
variant-notation: C82A A111G A120U A145U C150G U176C
reverse-splicing fitness: 0.00587
//
variant-notation: A120C A145U C150A U176G
reverse-splicing fitness: 0.0668
//
variant-notation: C82U A120G A145C U176G
reverse-splicing fitness: 0.00356
//
variant-notation: C82A A111C A120C C150A C169U
reverse-splicing fitness: 0.0133
//
variant-notation: C82U A145U C169A U176C
reverse-splicing fitness: 0.00648
//
variant-notation: C82U A111U A120C C150G C169U U176C
reverse-splicing fitness: 0.0149
//
variant-notation: C82A A120G A145U C150A
reverse-splicing fitness: 0.00826
//
variant-notation: A111C A120G A145U C150U C169A
reverse-splicing fitness: 0.0731
//
variant-notation: A111C A120G A145C C150G C169G U176G
reverse-splicing fitness: 0.00434
//
variant-notation: C82U A111G A120G A145C C150U C169U U176A
reverse-splicing fitness: 0.0196
//
variant-notation: C82G A111G A145G C150A C169U
reverse-splicing fitness: 0.0105
//
variant-notation: A120G A145C C150A C169A
reverse-splicing fitness: 0.029
//
variant-notation: C82A A120C C169G U176A
reverse-splicing fitness: 0.0193
//
variant-notation: C82A A111U C150A U176A
reverse-splicing fitness: 0.0197
//
variant-notation: C82A A120G C169G
reverse-splicing fitness: 0.0233
//
variant-notation: C82U A111U A120G A145C C150G C169G
reverse-splicing fitness: 0.0068
//
variant-notation: A111G A120G A145C C150U
reverse-splicing fitness: 0.0745
//
variant-notation: A111C A145C C169A U176A
reverse-splicing fitness: 0.0151
